Provide the reported % inhibition of asexual blood stage proliferation of each item.
Tested on: Plasmodium falciparum NF54 asexual blood stage
Assay: % inhibition of asexual blood stage proliferation (pLDH); higher = more inhibition
Conditions: 20 µM; 72 h
Numbers only, in %.

See these solved cases before continuing.
Oc1ccc(NCc2ccccc2OCc2ccccc2)cc1; 95
O=C(NO)C1(CS(=O)(=O)c2ccc(Oc3ccc(Cl)cc3)cc2)CCOCC1; 34.1

Each compound below has a recorded value; state its % inhibition of asexual blood stage proliferation.
1. C[C@H]1COc2c(N3CCN(C)CC3)c(F)cc3c(=O)c(C(=O)O)cn1c23
2. O=C(CCc1ccc2c(c1)OCO2)NCc1ccc(-c2ccccc2F)cc1

1. 39.9
2. -11.2

Consider the following items and state reported % inhibition of asexual blood stage proliferation for each.
1. O=C(N[C@H](Cc1cccc2ccccc12)C(=O)NCCc1c[nH]cn1)C1Cc2ccccc2C1
2. Nc1cc(-c2nc3ccccc3[nH]2)n[nH]c1=O
3. N#C/C(=C1/SC[C@H](c2ccc(Cl)cc2Cl)S1)n1ccnc1
4. O=C(NCCN1CCCCC1)c1cccc(C(F)(F)F)c1
5. O=C(Nc1ccccc1)N(Cc1cc(Br)ccc1O)c1ccc(F)cc1
6. CCC(C)n1ncn(-c2ccc(N3CCN(c4ccc(OCC5COC(Cn6cncn6)(c6ccc(Cl)cc6Cl)O5)cc4)CC3)cc2)c1=O (stereo not given)

[81.3, 79.1, 22.8, 78.6, 14.7, 83.4]

Every entry's value here was drawn from the supplement of paper PMC7801607.
